Listed here: items and their measured pIC50.
- EXPERIMENTAL_TARGET: TNFα / TNFα receptor (TNFα R1/Fc) (Homo sapiens)
- Construct: purchased R&D Systems
- Sequence (P01375 77-233 limits assumed, species assumed): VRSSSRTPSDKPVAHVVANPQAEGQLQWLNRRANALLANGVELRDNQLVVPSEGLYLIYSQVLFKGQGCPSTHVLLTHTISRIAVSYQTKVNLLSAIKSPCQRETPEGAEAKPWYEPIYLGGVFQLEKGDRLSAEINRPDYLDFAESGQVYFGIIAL
- MEASUREMENT_DESCRIPTION: Inhibition of binding of TNFα to the TNFα receptor (plate ELISA competition)
- EXPERIMENTAL_CONDITIONS: Table 2; read-out: Activity (IC50, inhibition of TNFα binding to TNFα R1/Fc)
- Protocol: The compounds listed in Table 2 below were assayed for ability to inhibit binding of TNFα to the TNFα receptor (TNFα R1/Fc). The assays were performed as described in the following procedure: TNFα (R&D Systems) was coated on high binding plate wells (Corning 96-well) at a single uniform concentration of 15 nM, 100 μL/well in PBS. […] The TMB reaction was stopped with the addition of 0.5N HCl and then the plate was read for absorbance at 450 nm.
pIC50: −log10 of the molar value. Numbered stars: 1 amine (or outer) side, 2 acyl side, 3 side chain; on linkers, the order of the positions; unused ones are H or OH. Bridge positions count the residues as written; N and C are the ends. Square brackets hold non-standard residues; d marks the D form. Peptide text beside a SMILES is read from it. Phe(4-(4-pyridyl)) = N[C@@H](Cc1ccc(-c2ccncc2)cc1)C(=O)O; Bip = N[C@@H](Cc1ccc(-c2ccccc2)cc1)C(=O)O; Phe(4-NH2) = Nc1ccc(C[C@H](N)C(=O)O)cc1; d(hPhe) = N[C@H](CCc1ccccc1)C(=O)O; d2Thi = N[C@H](Cc1cccs1)C(=O)O; Suc = O=C(CCC(=O)[*:2])[*:1]

Here are 4 compounds together with their reported answers.
COMPOUND	PARAMETER	ENDPOINT_VALUE
O=C(O)[C@@H]1Cc2ccc(cc2)NC(=O)[C@H](O)[C@@H](O)C(=O)N[C@H](Cc2cccs2)C(=O)N[C@@H](Cc2ccc(-c3ccccc3)cc2)C(=O)N[C@@H](Cc2ccccc2)C(=O)N1	pIC50	< 4.00
O=C1CCC(=O)N[C@H](CCc2ccccc2)C(=O)N[C@@H](Cc2ccc(-c3ccncc3)cc2)C(=O)N[C@H](Cc2ccccc2)C(=O)N[C@H](C(=O)N[C@@H](Cc2ccccc2)C(=O)O)Cc2ccc(cc2)N1 [Compound 426] ([d(hPhe)][Phe(4-(4-pyridyl))][dF][Phe(4-NH2)]F-OH; linker N-4 via Suc)	pIC50	> 5.00
O=C(O)CC[C@@H]1NC(=O)[C@H](Cc2ccc(-c3ccccc3)cc2)NC(=O)[C@@H](Cc2cccs2)NC(=O)CCC(=O)Nc2ccc(cc2)C[C@@H](C(=O)O)NC1=O [Compound 68] ([d2Thi][Bip]E[Phe(4-NH2)]-OH; linker N-4 via Suc)	pIC50	< 4.00
O=C1COc2ccc(cc2)C[C@@H](C(=O)O)NC(=O)[C@H](CCc2ccccc2)NC(=O)[C@@H](Cc2ccc(-c3ccccn3)cc2)NC(=O)[C@H](Cc2ccncc2)N1	pIC50	4.00 to 4.52

Provide value of pIC50 for this record tested with TNFα / TNFα receptor (TNFα R1/Fc) (Homo sapiens): O=C1CCC(=O)N[C@H](Cc2cccs2)C(=O)N[C@@H](Cc2ccc(-c3ccccc3)cc2)C(=O)N[C@H](Cc2ccccc2)C(=O)N[C@H](C(=O)O)Cc2ccc(cn2)N1
4.52 to 5.00
